# target_or_test_system: Protein skinhead-1 (Caenorhabditis elegans)
# Sequence (P34707 whole entry): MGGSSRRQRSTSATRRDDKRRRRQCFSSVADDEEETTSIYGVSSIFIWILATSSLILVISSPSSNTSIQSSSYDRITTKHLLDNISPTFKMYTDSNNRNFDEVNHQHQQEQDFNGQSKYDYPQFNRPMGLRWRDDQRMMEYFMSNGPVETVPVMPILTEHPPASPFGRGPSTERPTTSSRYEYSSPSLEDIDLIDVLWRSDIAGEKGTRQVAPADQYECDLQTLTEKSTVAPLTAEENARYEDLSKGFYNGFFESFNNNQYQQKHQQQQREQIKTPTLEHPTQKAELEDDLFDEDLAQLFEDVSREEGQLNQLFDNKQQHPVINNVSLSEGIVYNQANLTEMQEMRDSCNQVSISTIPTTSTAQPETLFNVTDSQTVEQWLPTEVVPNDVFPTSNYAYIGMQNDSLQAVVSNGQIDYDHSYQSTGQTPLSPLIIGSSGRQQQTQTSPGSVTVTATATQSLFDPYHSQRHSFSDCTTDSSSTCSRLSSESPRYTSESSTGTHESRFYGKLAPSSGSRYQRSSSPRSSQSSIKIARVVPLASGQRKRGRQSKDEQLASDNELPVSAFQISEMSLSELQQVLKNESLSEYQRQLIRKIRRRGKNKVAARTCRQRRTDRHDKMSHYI
# Type: functional
Activity calls are given as the source filed them.
quantity_measured: IC50

compound: CC(=O)Nc1cc(NC(C)=O)cc(C(=O)OCC(=O)N2CC(C)OC(C)C2)c1 (stereo unspecified)
quantity_measured: IC50
reading: > 100 µM (inactive)
//
compound: Cc1ccc(C)c(N2CCN(C(c3ccc(N(C)C)cc3)c3nnnn3C(C)(C)C)CC2)c1 (stereo unspecified)
quantity_measured: IC50
reading: > 100 µM (inactive)
//
compound: Fc1cccc(CSc2ccc(-c3ccco3)nn2)c1
quantity_measured: IC50
reading: > 100 µM (inactive)
//
compound: FCCCOc1ccc(-c2ccnc(-c3ccccc3)n2)cc1
quantity_measured: IC50
reading: 52.3 µM (inactive)
//
compound: Clc1ccc(CSc2ccc(-c3cccnc3)nn2)cc1
quantity_measured: IC50
reading: 83.9 µM (inactive)
//
compound: CC(C)OCCCn1c(=S)[nH]c2cc3c(cc2c1=O)OCO3
quantity_measured: IC50
reading: > 100 µM (inactive)

----------
# assay_text: Luminescence Cell-Based Dose Response HTS to Identify Activators of Luciferase Translation or Activity in H4 […] Cells. [Related pubchem assays: 1829 (Project Summary), 1814 (Primary HTS)]
# Format: functional
The source made the active and inactive calls.
Let's look at some compounds and their measured EC50.

input_smiles: N=c1oc2c3c4c(cc2cc1C(=O)Nc1ccccc1)CCCN4CCC3
EC50: 8.27 µM (active)
--
input_smiles: O=C(Cc1ccc(O)cc1)NC1CCCCCC1
EC50: 52 µM (active)
--
input_smiles: Nc1c(C(=O)N2CCCCC2)sc2nc3c(cc12)CCCC3
EC50: < 0.1 µM (active)
--
input_smiles: NC(=Nc1cccc2ccccc12)Nc1nc(O)c2c(n1)CCC2
EC50: > 120 µM (not active)

----------
# target_or_test_system: Luciferin 4-monooxygenase (Photinus pyralis, UniProt P08659)
# Sequence (P08659 whole entry): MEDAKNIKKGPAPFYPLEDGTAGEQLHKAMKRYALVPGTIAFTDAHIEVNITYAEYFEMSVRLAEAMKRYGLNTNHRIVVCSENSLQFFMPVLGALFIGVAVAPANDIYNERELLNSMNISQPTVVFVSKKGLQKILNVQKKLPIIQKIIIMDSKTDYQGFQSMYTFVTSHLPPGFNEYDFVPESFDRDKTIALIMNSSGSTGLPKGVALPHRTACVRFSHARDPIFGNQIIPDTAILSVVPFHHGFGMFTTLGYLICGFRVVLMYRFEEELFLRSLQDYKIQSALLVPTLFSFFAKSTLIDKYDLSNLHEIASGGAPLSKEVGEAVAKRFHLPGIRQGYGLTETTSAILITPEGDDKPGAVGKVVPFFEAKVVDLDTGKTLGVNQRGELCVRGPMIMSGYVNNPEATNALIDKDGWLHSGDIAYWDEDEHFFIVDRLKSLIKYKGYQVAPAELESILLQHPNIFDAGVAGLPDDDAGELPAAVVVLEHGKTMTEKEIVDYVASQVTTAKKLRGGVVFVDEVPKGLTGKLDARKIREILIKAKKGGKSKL
# assay_text: firefly luciferase enzyme inhibitors, dose response, biochemical, luminescence (AID 1891)
Activity calls are given as the source filed them.

molecule: CNc1nc2c3ccccc3n(C(C)=O)c2s1
EC50: > 112 µM (not active)
--
molecule: CCN(CC)S(=O)(=O)c1cc(NC(=O)C2Cc3ccccc3C(=O)O2)ccc1C (stereo unspecified)
EC50: > 112 µM (not active)
--
molecule: CC(=O)c1cccc(NC(=O)CCc2nnc3ccc(NCc4ccco4)nn23)c1
EC50: > 112 µM (not active)
--
molecule: CCn1c2ccccc2c2cc(NC(=O)CSc3nnc(-c4cccc(Cl)c4)o3)ccc21
EC50: > 112 µM (not active)
--
molecule: COCCNC(=O)/C(C#N)=C/c1ccc(O)cc1
EC50: 4.8 µM (active)
--
molecule: CC(=O)Nc1ccc2nc(NC(=O)c3cccs3)sc2c1
EC50: 2.26 µM (active)
--
molecule: CSc1ccc(/C=N/NC(=O)c2ccc(O)cc2)cc1
EC50: 1.57 µM (active)
--
molecule: COc1ccc(NC(=O)c2cc3ccccn3n2)cc1
EC50: 31.4 µM (active)
--
molecule: CC(C)Oc1ccc(N2CC(C(=O)Nc3ccc(N4CCOCC4)cc3)CC2=O)cc1 (stereo unspecified)
EC50: > 112 µM (not active)
--
molecule: Cc1c(Cl)ccc2sc(NC(=O)C3CC3)nc12
EC50: > 112 µM (not active)
--
molecule: CCc1nnc(NC(=O)[C@@H](NC(=O)c2cc(OC)cc(OC)c2)C(C)C)s1
EC50: > 112 µM (not active)
